experiment: Phase I study, pharmacokinetics following oral dosing; format: in vivo, human; conditions: human, plasma, po, 15 mg twice daily, 15 mg/twice daily oral; Table 2, n=28; read-out: SS Cmax
quantityMeasured: Cmax (nM)

• CCS(=O)(=O)N1CCN(c2ccc(Nc3ncc(C(N)=O)c(NC4CC4)n3)cc2)CC1 = 530

* * *

experiment: Phase I study, pharmacokinetics following oral dosing; format: in vivo, human; settings: human, plasma; 15 mg/twice daily oral; Table 2, n=28; read-out: T1/2 (converted)
quantityMeasured: half-life

* CCS(=O)(=O)N1CCN(c2ccc(Nc3ncc(C(N)=O)c(NC4CC4)n3)cc2)CC1 | 11.2 h

* * *

test system: DHL5; experiment: DLBCL cell line viability, CellTiter Glo, ten-point curve; assay type: cell-based; conditions: read-out: IC50 of Kinase Inhibitor in Cell Titer Glo Assay
Measured IC50, listed per entry for reference.
quantityMeasured: IC50 (µM)

* COc1cccc2c1C(=O)c1c(O)c3c(c(O)c1C2=O)C[C@@](O)(C(=O)CO)C[C@@H]3O[C@H]1C[C@H](N)[C@H](O)[C@H](C)O1 | 0.03
* CCS(=O)(=O)N1CCN(c2ccc(Nc3ncc(C(N)=O)c(NC4CC4)n3)cc2)CC1 | 0.31
* CC[C@H](Nc1ncnc2[nH]cnc12)c1nc2cccc(F)c2c(=O)n1-c1ccccc1 | 1.3
* C[C@H](Nc1ncnc2nc[nH]c12)c1cc2cccc(Cl)c2c(=O)n1-c1ccccc1 | 0.33

* * *

assay: Phase I study, pharmacokinetics following oral dosing; assay type: in vivo, human; details: human, plasma; 15 mg/day oral; Table 2, n=28; read-out: T1/2 (converted)
quantityMeasured: half-life (h)

- CCS(=O)(=O)N1CCN(c2ccc(Nc3ncc(C(N)=O)c(NC4CC4)n3)cc2)CC1 [Cerdulatinib]: 11.5

* * *

assay: Phase I study, pharmacokinetics following oral dosing; type: in vivo, human; conditions: human, plasma, oral; 30 mg/day; Table 3, n=43; read-out: T1/2 (converted)
quantityMeasured: half-life (h)

• CCS(=O)(=O)N1CCN(c2ccc(Nc3ncc(C(N)=O)c(NC4CC4)n3)cc2)CC1 = 12.3

* * *

test: Phase I study, pharmacokinetics following oral dosing; assay type: in vivo, human; details: human, plasma, oral, 45 mg, 45 mg BID; n=20; read-out: Cmax
quantityMeasured: Cmax (nM)

• CCS(=O)(=O)N1CCN(c2ccc(Nc3ncc(C(N)=O)c(NC4CC4)n3)cc2)CC1 = 2160

* * *

assay: Phase I study, pharmacokinetics following oral dosing; assay type: in vivo, human; settings: human, plasma, oral, 30 mg/day; Table 3, n=43; read-out: SS Cmax
quantityMeasured: Cmax (nM)

* CCS(=O)(=O)N1CCN(c2ccc(Nc3ncc(C(N)=O)c(NC4CC4)n3)cc2)CC1 | 630

* * *

assay: Phase I study, pharmacokinetics following oral dosing; format: in vivo, human; settings: human, plasma, po, 50 mg/day, 50 mg/day oral; Table 2, n=28; read-out: SS Cmax
quantityMeasured: Cmax

• CCS(=O)(=O)N1CCN(c2ccc(Nc3ncc(C(N)=O)c(NC4CC4)n3)cc2)CC1 [Cerdulatinib] = 2070 nM

* * *

Measured IC50, listed per entry for reference.
tested on: DHL10; assay: DLBCL cell line viability, CellTiter Glo, ten-point curve; type: cell-based; conditions: read-out: IC50 of Kinase Inhibitor in Cell Titer Glo Assay
quantityMeasured: IC50 (µM)

* CCS(=O)(=O)N1CCN(c2ccc(Nc3ncc(C(N)=O)c(NC4CC4)n3)cc2)CC1 | 2.3
* CC[C@H](Nc1ncnc2[nH]cnc12)c1nc2cccc(F)c2c(=O)n1-c1ccccc1 | 12
* COc1cccc2c1C(=O)c1c(O)c3c(c(O)c1C2=O)C[C@@](O)(C(=O)CO)C[C@@H]3O[C@H]1C[C@H](N)[C@H](O)[C@H](C)O1 | 0.3
* C[C@H](Nc1ncnc2nc[nH]c12)c1cc2cccc(Cl)c2c(=O)n1-c1ccccc1 | 4.1
